Target: human GLP-1 receptor (human, UniProt P43220 24-463)
Assay: cell-based or functional assay
Starred links: 1 amine or outer side, 2 acyl side, 3 side chain; linkers in the order of their positions; H or OH if unused. Non-standard residues stand in square brackets, D forms with d. Groups on a side chain read outwards from the residue. *: point of attachment. C20 diacid = O=C(O)CCCCCCCCCCCCCCCCCCC(=O)*; C18 diacid = O=C(O)CCCCCCCCCCCCCCCCC(=O)*; C16 diacid = O=C(O)CCCCCCCCCCCCCCC(=O)*; γGlu = O=C(O)[C@H](CCC(=O)[*:2])N[*:1]; C14 diacid = O=C(O)CCCCCCCCCCCCC(=O)*; Trx = NC[C@H]1CC[C@H](C(=O)O)CC1; AEEA = NCCOCCOCC(=O)O; Aib = CC(C)(N)C(=O)O
ENDPOINT: Human GLP-1R potency [EC50 (pM)]
Form entry: value (pM) — number only.

Compound 0634 (peptide) peptide: H[Aib]EGTFTSDVSK([γGlu-γGlu-γGlu-γGlu-C16 diacid])YLEEQAARK([γGlu-γGlu-γGlu-γGlu-C16 diacid])FIAWLVRGRGEASELSTAALGRLSAELHELATLPRTETGSGSP-NH2 = 14.7
Compound 0660 (peptide) peptide: H[Aib]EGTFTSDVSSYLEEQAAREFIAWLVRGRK([AEEA-γGlu-C18 diacid])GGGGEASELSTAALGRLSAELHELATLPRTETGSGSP-NH2 = 3.9
Compound 0297 (peptide) peptide: H[Aib]EGTFTSDVSSYLEEQAAREFIAWLVRK([AEEA-AEEA-γGlu-C16 diacid])RGGGGGASELSTAALGRLSK([AEEA-AEEA-γGlu-C16 diacid])ELHELATLPRTETGSGSP-NH2 = 30.2

[in] What value of Human GLP-1R potency [EC50 (pM)] has been recorded for this entry: Compound 0565 (peptide) peptide: H[Aib]EGTFTSDVSK([AEEA-AEEA-γGlu-C20 diacid])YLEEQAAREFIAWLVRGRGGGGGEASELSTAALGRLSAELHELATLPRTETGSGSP-NH2
[out] 6.4

[in] Cool, now Compound 0270 (peptide) peptide: HWEGTFTSDVSSYLEEK([AEEA-AEEA-γGlu-Trx-C20 diacid])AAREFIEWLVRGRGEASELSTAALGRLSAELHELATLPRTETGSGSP-NH2
[out] 6.3

[in] Cool, now Compound 0009 (peptide) peptide: H[Aib]EGTFTSDVSSYLEGQAAREFIAWLVRGK([AEEA-AEEA-γGlu-C18 diacid])GEGEGEEASELSTAALGRLSAELHELATLPRTETGSGSP-NH2
[out] 7.9

[in] Cool, now Compound 0120 (peptide) peptide: H[Aib]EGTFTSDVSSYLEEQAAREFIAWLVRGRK([AEEA-AEEA-γGlu-Trx-C20 diacid])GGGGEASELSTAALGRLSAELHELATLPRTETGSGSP-NH2
[out] 9.1

[in] Cool, now Compound 0484 (peptide) peptide: H[Aib]EGTFTSDVSK([AEEA-AEEA-γGlu-C14 diacid])YLEEQAVREFIAK([AEEA-AEEA-γGlu-C14 diacid])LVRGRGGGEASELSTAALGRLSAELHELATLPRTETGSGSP-NH2
[out] 72.8

Ref: patent US20260132182A1
